- tested-on: the molecule itself
- test-method-notes: SEC; isolated dimer diluted to 5 μM in standard buffer (20 mM HEPES, 150 mM NaCl, 2 mM β-mercaptoethanol) at pH 5.5, 37 °C, aliquots over 2 h on Superdex 75; dimer to monomers; Kd from the equilibrium dimer fraction, koff from a single exponential decay, kon derived from Kd = koff/kon
pKd: −log10 of the molar value.
quantity-measured: pKd

| protein | value-reported |
| --- | --- |
| forkhead domain of human FoxP1, wild type (domain or fragment) AEVRPPFTYASLIRQAILESPEKQLTLNEIYNWFTRMFAYFRRNAATWKNAVRHNLSLHKCFVRVENVKGAVWTVDEVEFQKRRPQK | 4.88 |
